B1: EEHEE_rd3_0130 (parent)
chain: TKIIVNGKTFTAPTEEEAQKIAEKLAKKAGLTVHKKNGTFELK

variants of: B1; assay: folding stability dG (cDNA display proteolysis); higher = more stable; conditions: PBS, room temperature
just bin them by folding stability dG: bin 1 (below 1 kJ/mol), bin 2 (1 kJ/mol to below 3 kJ/mol), bin 3 (3 kJ/mol or more)

// below: answered variants
E17A; bin 3
E41W; bin 3
G30F; bin 1

Exercise: Lab note: sort `G7F` into the matching folding stability dG band.
Key: bin 2

Exercise: Lab note: sort `K20M` into the matching folding stability dG band.
Key: bin 3

Exercise: Lab note: sort `A22M` into the matching folding stability dG band.
Key: bin 1
